Ref: patent US10221420B2

# EXPERIMENTAL TARGET: T1, CD133 (prominin-1) (UniProt O43490 O43490:20-865)
# T1 sequence: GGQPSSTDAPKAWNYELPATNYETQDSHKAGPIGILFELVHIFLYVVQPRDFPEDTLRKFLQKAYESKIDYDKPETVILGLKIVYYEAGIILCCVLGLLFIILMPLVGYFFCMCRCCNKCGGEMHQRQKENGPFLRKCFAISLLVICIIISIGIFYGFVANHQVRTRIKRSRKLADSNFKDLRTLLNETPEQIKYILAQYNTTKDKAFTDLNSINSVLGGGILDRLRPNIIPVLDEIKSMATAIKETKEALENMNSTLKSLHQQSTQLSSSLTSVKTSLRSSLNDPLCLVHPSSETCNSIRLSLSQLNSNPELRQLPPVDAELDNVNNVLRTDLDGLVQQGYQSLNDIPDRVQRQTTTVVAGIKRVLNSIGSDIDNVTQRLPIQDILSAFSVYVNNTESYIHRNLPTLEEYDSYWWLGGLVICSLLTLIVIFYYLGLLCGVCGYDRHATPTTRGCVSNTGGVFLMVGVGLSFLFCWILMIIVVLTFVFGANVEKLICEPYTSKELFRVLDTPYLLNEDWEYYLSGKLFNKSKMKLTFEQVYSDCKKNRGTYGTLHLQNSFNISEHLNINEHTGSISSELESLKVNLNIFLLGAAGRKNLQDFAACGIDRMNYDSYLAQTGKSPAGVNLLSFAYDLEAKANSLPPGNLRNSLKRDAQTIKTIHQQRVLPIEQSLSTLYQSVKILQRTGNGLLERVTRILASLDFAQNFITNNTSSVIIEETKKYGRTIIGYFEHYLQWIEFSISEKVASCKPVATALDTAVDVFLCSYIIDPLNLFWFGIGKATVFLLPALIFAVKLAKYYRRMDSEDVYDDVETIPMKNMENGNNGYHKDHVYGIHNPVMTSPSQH
# PROTOCOL NOTES: flow; HT29 cells, 50 mM NaCl, 2.5 mM MgCl2, on ice 1 h
# EXPERIMENTAL CONDITIONS: tags: native CD133 on HT-29 colorectal cancer cells (ATCC); label: Cy5; hairpin with 10-bp DNA stem
READOUT KIND: Kd (nM)
# value in nM; strip the unit string

Problem: Please look up its Kd: CGCGCGCCGCACGUAUACUAUGCGGCGCGCG (mixed, DNA stem with 5-methyl-dC (all stem C except as printed); 2'-F C and U in RNA loop ACGUAUACUAU; 3' inverted dT) [CD133 RNA/DNA hybrid aptamer, unconjugated]
Result: 84.8
